Tested on: Aliivibrio fischeri
Test: Concentration required for 50% inhibition of 3-oxo-C6-HSL-induced luminescence of the biosensor strain
The following ranges of IC50 define the classes used here: L (below 2 µM), M (2 µM to below 4 µM), H (4 µM or more)

Field: class (IC50) — entry: O=C(CC(=O)NC1CCOC1=O)Cc1ccc(Cl)cc1 (centres undefined) M

Field: class (IC50) — entry: CCCC(=O)CC(=O)NC1CCOC1=O (centres undefined) L

Field: class (IC50) — entry: COc1ccc(CC(=O)CC(=O)NC2CCOC2=O)cc1 (centres undefined) M

Field: class (IC50) — entry: O=C(CC(=O)NC1CCOC1=O)Cc1ccc(C(F)(F)F)cc1 (centres undefined) H

Field: class (IC50) — entry: O=C(CCCC1CCCCC1)NC1CCOC1=O (centres undefined) H

Field: class (IC50) — entry: CC(C)CC(=O)CC(=O)NC1CCOC1=O (centres undefined) L

Field: class (IC50) — entry: CC(C)(C)CC(=O)CC(=O)NC1CCOC1=O (centres undefined) H

Field: class (IC50) — entry: O=C(COCc1ccccc1)NC1CCOC1=O (centres undefined) M

Field: class (IC50) — entry: O=C(CC(=O)NC1CCOC1=O)CC1CCCCC1 (centres undefined) L

Field: class (IC50) — entry: O=C(CC(=O)NC1CCOC1=O)CC1CCCC1 (centres undefined) L

Field: class (IC50) — entry: CCCCCC(=O)NC1CCOC1=O (centres undefined) H

Field: class (IC50) — entry: O=C(CC(=O)NC1CCOC1=O)Cc1ccccc1Cl (centres undefined) H

---

Reported IC50 values for the following molecules.
Tested on: Aliivibrio fischeri
Assay: Concentration required for 50% inhibition of 3-oxo-C6-HSL-induced luminescence of the biosensor strain
# output: bare number, implied unit nM

Worked cases, answers included:
* O=C(CC(=O)NC1CCOC1=O)Cc1ccc(Br)cc1 (configuration not stated) | 2000
* O=C(CC(=O)NC1CCOC1=O)Cc1ccc(F)cc1 (configuration not stated) | 4000
* Cc1ccc(CC(=O)CC(=O)NC2CCOC2=O)cc1 (configuration not stated) | 4000
* O=C(CCCc1ccccc1)NC1CCOC1=O (configuration not stated) | 2000
* O=C(CC(=O)NC1CCOC1=O)Cc1ccccc1 (configuration not stated) | 2000
* O=C(CSCc1ccccc1)NC1CCOC1=O (configuration not stated) | 2000

Please examine the following record next.
Consider the molecule O=C(CC(=O)NC1CCOC1=O)Cc1cccc(Cl)c1 (configuration not stated) . State its measured IC50. 4000
